Test system: 3D7-MR4 trophozoite parasite-infected RBCs
assayText: Metabolomic profiling (hydrophilic metabolite changes, UHPLC-MS)
Type: cell-based, Plasmodium falciparum
testContext: metabolite inosine
Here the recorded Log2(fold change) inosine is given for each entry.
The reply should be a number, written without any unit.

[[record]]
compound = "Cc1cc(Nc2ccc(OCc3ccccc3)cc2)nc2cc(O)ccc12"
assaysystem = "3D7-MR4 trophozoite parasite-infected RBCs"
endpointname = "Log2(fold change) inosine"
measurednumber = -0.1121


Input line: Query: Log2(fold change) inosine; subject: "Cc1ccc(Oc2ncccc2C(=O)Nc2cccc3cccnc23)c(C)c1"
Output line: -0.1327

Input line: Query: Log2(fold change) inosine; subject: Clc1ccc2c(N3CCN(CCCN4CCN(c5ccnc6cc(Cl)ccc56)CC4)CC3)ccnc2c1 [Piperaquine, reference compound]
Output line: -0.3997

Input line: Query: Log2(fold change) inosine; subject: CC(C)(C)NCc1cc(Nc2ccnc3cc(Cl)ccc23)c2c(c1O)CCCC2 [Naphtoquine, Naphthoquine, reference compound]
Output line: -0.4099

----------
System: 3D7-MR4 trophozoite parasite-infected RBCs
assayText: Metabolomic profiling (hydrophilic metabolite changes, UHPLC-MS)
Type: cell-based, Plasmodium falciparum
testContext: metabolite pantothenate
endpointName: Log2(fold change) pantothenate
The reply should be a number, written without any unit.

[[record]]
compound = "CC(C)(C)c1ccc2c(c1)CN(Cc1ccc(Cl)cc1)CO2 [MMV000442]"
measurednumber = -0.5576

[[record]]
compound = "COc1ccc(C2c3ccc4ccccc4c3Oc3ncn(CCCN(C)C)c(=N)c32)cc1 (stereo not shown) [MMV667491]"
measurednumber = 0.1007

[[record]]
compound = "C[C@H]1Cc2c([nH]c3cc(Cl)c(F)cc23)[C@@]2(N1)C(=O)Nc1ccc(Cl)cc12 [KAE609, reference compound]"
measurednumber = 0.0000

[[record]]
compound = "CN(C(=O)c1cn2c(-c3ccc(C(F)(F)F)cc3)cnc2cn1)c1ccc(C#N)cc1 [KAI407, reference compound]"
measurednumber = -0.2828

[[record]]
compound = "CC(C)(C)OC(=O)N1CCN(c2ccccc2NC(=O)c2cccc(C(F)(F)F)c2Oc2ccc(F)cc2)CC1 [MMV030666]"
measurednumber = -0.0587


Input line: Query: Log2(fold change) pantothenate; subject: COc1cc(-c2nc(-c3ccccc3)c(-c3ccccc3)[nH]2)ccc1OCCN(C)C [MMV027496]
Output line: 0.0065

Input line: Query: Log2(fold change) pantothenate; subject: Cc1ccc(Oc2ncccc2C(=O)Nc2cccc3cccnc23)c(C)c1 [MMV020746]
Output line: -0.1112

Input line: Query: Log2(fold change) pantothenate; subject: OC(c1cc(C(F)(F)F)nc2c(C(F)(F)F)cccc12)C1CCCCN1 (stereo not shown) [Mefloquine, reference compound]
Output line: 0.0000

Input line: Query: Log2(fold change) pantothenate; subject: CCCCN(CCCC)CC(O)c1cc(Cl)cc2c1-c1ccc(Cl)cc1/C2=C/c1ccc(Cl)cc1 (stereo not shown) [Lumefantrine, reference compound]
Output line: 0.0000

Input line: Query: Log2(fold change) pantothenate; subject: CN(C)c1ccc2nc3ccc(=[N+](C)C)cc-3sc2c1 [Methylene blue, reference compound]
Output line: -1.6576

Input line: Query: Log2(fold change) pantothenate; subject: FC(F)(F)c1ccc(Nc2cc3[nH]c(-c4cccc(C(F)(F)F)c4)nc3cn2)nc1 [MMV675939]
Output line: -0.0579

Input line: Query: Log2(fold change) pantothenate; subject: CCCOCc1cc(CN2CCN(c3cccc(Cl)c3)CC2)c(O)c2ncccc12 [MMV000787]
Output line: -0.1388

Input line: Query: Log2(fold change) pantothenate; subject: O=C1C(O)=C([C@H]2CC[C@H](c3ccc(Cl)cc3)CC2)C(=O)c2ccccc21 [Atovaquone, reference compound]
Output line: -0.2044
